pest or weed control at 100 ppm listing for selected compounds.
# Tested on: Alternaria solani
# Assay: Tomato Early Blight fungicidal activity (ALTESO)
# Assay type: in vivo
# Applied conditions: 24 h, high volume, 1 Day Protectant, read-out: ALTESO % Control rating
Measured metric: pest or weed control at 100 ppm

compound=COc1ccnc(C(=O)N[C@@H](C)C(=O)O[C@@H](C)[C@H](Oc2ccc(F)cc2)c2ccccc2)c1OCOC(C)=O assayed_target="Alternaria solani" observed_result="< 80%"
compound="COc1ccnc(C(=O)N[C@@H](C)C(=O)O[C@@H](C)C(Oc2ccc(F)cc2)c2ccc(F)cc2)c1OCOC(C)=O (stereo partly drawn)" assayed_target="Alternaria solani" observed_result="> 80%"
compound=COc1ccnc(C(=O)N[C@@H](C)C(=O)O[C@@H](C)[C@H](Oc2ccc(F)cc2)c2ccccc2)c1OC(C)=O assayed_target="Alternaria solani" observed_result="< 80%"
compound=COc1ccnc(C(=O)N[C@@H](C)C(=O)O[C@H](C)[C@@H](Oc2ccccc2)c2ccccc2)c1OCOC(C)=O assayed_target="Alternaria solani" observed_result="< 80%"
compound=COc1ccnc(C(=O)N[C@@H](C)C(=O)O[C@@H](C)[C@H](Oc2ccccc2)c2ccc3ccccc3c2)c1OCOC(C)=O assayed_target="Alternaria solani" observed_result="< 0%"
compound=COc1ccnc(C(=O)N[C@@H](C)C(=O)O[C@@H](C)[C@H](Oc2ccccc2)c2ccc(F)cc2Cl)c1OCOC(C)=O assayed_target="Alternaria solani" observed_result="< 0%"
